Tested on: ATP;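 further: ATP exposure 15 min at 22 °C before imaging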
Assay: switch fluorescence ratio, 500 uM ATP over buffer (Cy3 cluster intensity, sum of 5 cycles each) (fold (ratio)); higher = stronger signal-on switching upon ATP binding; sequences stand for … in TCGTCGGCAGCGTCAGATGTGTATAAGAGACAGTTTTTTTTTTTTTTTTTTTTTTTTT…TC
Conditions: aptamer strand: ATP DNA aptamer (quencher-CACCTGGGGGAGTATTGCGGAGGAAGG + anchor), 100 nM annealed; ATP concentration: 500 uM
Classification field: MET = switch fluorescence ratio at or over 1; NOT MET = switch fluorescence ratio under 1.

Below, 6 sequences whose answers are already recorded.
| sequenceChain | testTarget | classAssignment |
| --- | --- | --- |
| TGACGAGGGG | ATP | NOT MET |
| GGTTCTGTCC | ATP | MET |
| AGTGCTGTTC | ATP | NOT MET |
| TTGAGGAGGG | ATP | NOT MET |
| AATAATTGAC | ATP | MET |
| TGTTAAAGCG | ATP | MET |

Decide: is the reported value of switch fluorescence ratio for GGATACTGCA equal to or greater than 1? MET

Next entry: TTAGGTAGTG NOT MET
